Assay: qHTS assay to identify small molecule antagonists of the androgen receptor (AR) signaling pathway - cell viability counter screen (AID 743033; note: nearly all actives have a fitted effect of over 45% in size)
Conditions: AR-bla HEK293 viability, CellTiter-Glo luminescence, 16 h; series mostly up to 58.5 µM
Inconclusive results are not listed. Active and inactive are the calls of the source. Calls come from the whole dose curve; as a rule, active = well fitted cell-killing curve with a large enough effect in the repeat runs; inconclusive = weak or mixed curves; inactive = no such curve, though single readings can be large or run the other way.
experimentalEndpoint: activity change, negative = cytotoxicity

Which measured activity change, negative = cytotoxicity value corresponds to `CC(C)(C)OC(=O)N1C[C@@H](F)C[C@H]1C(=O)O` ?
inactive

Then what about the compound `NCCNC(=O)c1ccc(Cl)cn1` ?
inactive

Then what about the compound `c1ccc2cnncc2c1` ?
inactive

Then what about the compound `CC(C)(C)CC(C)(C)N` ?
inactive

Then what about the compound `CC(C)(C)C(=O)/C=C/c1ccc(Cl)cc1` ?
inactive

Others:
Which measured activity change, negative = cytotoxicity value corresponds to `CC(C)[C@H](N)C(=O)OCCOCn1cnc2c(=O)[nH]c(N)nc21` ?
inactive

Then what about the compound `CCC(=O)c1cccc(Cl)c1` ?
inactive

Then what about the compound `CC(C)=CC(=O)O` ?
inactive

Then what about the compound `O=C(O)c1ccc[n+]([O-])c1` ?
inactive

###

Target: Glucocorticoid receptor (Homo sapiens)
Assay: qHTS assay to identify small molecule agonists of the glucocorticoid receptor (GR) signaling pathway (AID 720691)
Conditions: GR-bla HeLa, beta-lactamase reporter ratio, 18 h; series mostly up to 62.4 µM
Results filed as inconclusive are left out. Activity calls are given as the source filed them. Calls come from the whole dose curve; as a rule, active = well fitted activation curve with a large enough effect in the signal ratio in the repeat runs (not every such curve was filed as active); inconclusive = weak or mixed curves, or effect the other way; inactive = no such curve, though single readings can be large or run the other way; the % refers to the signal ratio.
Pick one and only one: active, inactive

For orientation, consider the following solved cases.
Please let me know the test result on file for `CO[Si](CCCNCCC[Si](OC)(OC)OC)(OC)OC` .
inactive

Then what about the compound `NS(=O)(=O)c1cc2c(cc1Cl)NC(CSCc1ccccc1)=NS2(=O)=O` ?
inactive

Then what about the compound CCC(C(=O)NC(N)=O)c1ccccc1 (stereo not drawn) ?
inactive

Then what about the compound `OCCN1C[C@H](O)[C@@H](O)[C@H](O)[C@H]1CO` ?
inactive

Then what about the compound `OCCCCCCO` ?
inactive

Then what about the compound `CCCOc1ccccc1-c1nc2n[nH]nc2c(=O)[nH]1` ?
inactive

Others:
Please let me know the test result on file for `C=CC(=O)N1CCOCC1` .
inactive

Then what about the compound `CC(C)COC(=O)C(C)C` ?
inactive

Then what about the compound `COc1ccc(N=[N+]([O-])c2ccc(OC)cc2)cc1` ?
inactive

Then what about the compound `CCCCCCCCCCCCCCC` ?
inactive

Then what about the compound `O=C(O)CCNC(=O)c1ccc(N=Nc2ccc(O)c(C(=O)O)c2)cc1` ?
inactive

Then what about the compound `Fc1ccccc1-c1ccccc1` ?
inactive

Then what about the compound Cc1nccn1CC1CCc2c(c3ccccc3n2C)C1=O (stereo not drawn) ?
inactive

Then what about the compound `Nc1cc(C(Cl)=C(Cl)Cl)c(S(N)(=O)=O)cc1S(N)(=O)=O` ?
inactive

Then what about the compound `CSc1ccc(C=O)cc1` ?
inactive

Then what about the compound `Nc1nc2c(ncn2CCC(CO)CO)c(=O)[nH]1` ?
inactive

Then what about the compound NC(=O)CCCCC1CCSS1 (stereo not drawn) ?
inactive

Then what about the compound `CCCCCCCCCCCl` ?
inactive

###

Assay: qHTS assay to identify small molecule antagonists of the estrogen receptor alpha (ER-alpha) signaling pathway using the BG1 cell line - cell viability counter screen (AID 743081);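 note: compound given together with 17beta-estradiol as the ER stimulus; nearly all actives have a fitted effect of over 45% in size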
Details: BG1Luc4E2 viability, CellTiter-Fluor, 22 h; series mostly up to 70.3 µM
Results filed as inconclusive are left out. Active and inactive are the calls of the source. Calls come from the whole dose curve; as a rule, active = well fitted cell-killing curve with a large enough effect in the repeat runs; inconclusive = weak or mixed curves, or effect the other way; inactive = flat fitted curve, though single readings scatter.
experimentalEndpoint: activity change, negative = cytotoxicity

Known results for compounds:
Which measured activity change, negative = cytotoxicity value corresponds to C=C(C)C1CC=C(C)C(O)C1 (configuration not stated) ?
inactive

Then what about the compound `C/C=C1\C(=O)C[C@H]2[C@@H]3CCC4=CC(=O)CC[C@]4(C)[C@H]3CC[C@]12C` ?
inactive

Then what about the compound `COc1ccc(COC=O)cc1` ?
inactive

Then what about the compound `CSc1nc(NC2CC2)nc(NC(C)(C)C)n1` ?
inactive

Then what about the compound `NS(=O)(=O)c1cc2c(cc1Cl)NC(CSCc1ccccc1)=NS2(=O)=O` ?
inactive

Then what about the compound `CC(C)(C)CC(C)(C)N` ?
inactive

From here, focus on the item given below.
Which measured activity change, negative = cytotoxicity value corresponds to C#CC(O)CCCCC (configuration not stated) ?
inactive

Numbers sourced from PubChem BioAssay (Tox21).
